Property: log10 of MIC; scope: individual molecules
Test system: Escherichia coli
experimentDescription: Antibacterial activity against ESBL-producing multidrug-resistant Escherichia coli clinical isolate 14-2 assessed as inhibition of bacterial growth incubated for 18 to 20 hrs by two fold serial dilution assay
Assay type: functional
runParameters: time 18-20 hrs
Please note: log10 values; quantity MIC; unit µg/mL.

Would you please look over these solved cases?
{"molecule": "Nc1nc(/C(=N/OC(C(=O)O)C2CCSCC2)C(=O)N[C@@H]2C(=O)N3C(C(=O)O)=C(CSCCNC(=O)c4ccc(O)c(O)c4Cl)CS[C@H]23)cs1.O=C(O)C(F)(F)F (stereo partly specified)", "val": -0.30}
{"molecule": "C[C@@H](O)[C@H]1C(=O)N2C(C(=O)O)=C(S[C@@H]3CN[C@H](C(=O)N(C)C)C3)[C@H](C)[C@H]12 [MEROPENEM]", "val": 0.30}
{"molecule": "Nc1nc(/C(=N/O[C@@H](C(=O)O)C2CCC(F)(F)CC2)C(=O)N[C@@H]2C(=O)N3C(C(=O)O)=C(CSCCNC(=O)c4ccc(O)c(O)c4Cl)CS[C@H]23)cs1.O=C(O)C(F)(F)F", "val": -0.30}

Form: molecule = CC(C)(O/N=C(\C(=O)N[C@@H]1C(=O)N2C(C(=O)O)=C(CS[C@H]3CC[C@@H](NC(=O)c4ccc(O)c(O)c4Cl)CC3)CS[C@H]12)c1csc(N)n1)C(=O)O.O=C(O)C(F)(F)F ; log10 of MIC = 0.60

Form: molecule = Cc1sc(N)nc1/C(=N/OC(C(=O)O)C1CCC(F)(F)CC1)C(=O)N[C@@H]1C(=O)N2C(C(=O)O)=C(CSCCNC(=O)c3ccc(O)c(O)c3Cl)CS[C@H]12.O=C(O)C(F)(F)F (stereo partly specified) ; log10 of MIC = 0.00

Form: molecule = CC(C)[C@H](O/N=C(\C(=O)N[C@@H]1C(=O)N2C(C(=O)O)=C(CSCCNC(=O)c3ccc(O)c(O)c3Cl)CS[C@H]12)c1csc(N)n1)C(=O)O.O=C(O)C(F)(F)F ; log10 of MIC = 0.00

Form: molecule = Nc1nc(/C(=N/OC(C(=O)O)C2CCCCC2)C(=O)N[C@@H]2C(=O)N3C(C(=O)O)=C(CSCCNC(=O)c4ccc(O)c(O)c4Cl)CS[C@H]23)c(Cl)s1.O=C(O)C(F)(F)F (stereo partly specified) ; log10 of MIC = -0.30

Form: molecule = C[C@@](O/N=C(\C(=O)N[C@@H]1C(=O)N2C(C(=O)O)=C(CSCCNC(=O)c3ccc(O)c(O)c3Cl)CS[C@H]12)c1csc(N)n1)(C(=O)O)C(F)(F)F.O=C(O)C(F)(F)F ; log10 of MIC = -0.30

Form: molecule = CC1CCC(C(O/N=C(\C(=O)N[C@@H]2C(=O)N3C(C(=O)O)=C(CSCCNC(=O)c4ccc(O)c(O)c4Cl)CS[C@H]23)c2csc(N)n2)C(=O)O)CC1.O=C(O)C(F)(F)F (stereo partly specified) ; log10 of MIC = -0.30

Form: molecule = CC(C)(O/N=C(\C(=O)N[C@@H]1C(=O)N2C(C(=O)O)=C(CSCCNC(=O)c3ccc(O)c(O)c3Cl)CS[C@H]12)c1csc(N)n1)C(=O)O.O=C(O)C(F)(F)F ; log10 of MIC = 0.30

Form: molecule = Nc1nc(/C(=N/OC(C(=O)O)C2CCC(F)(F)CC2)C(=O)N[C@@H]2C(=O)N3C(C(=O)O)=C(CSCCNC(=O)c4ccc(O)c(O)c4Cl)CS[C@H]23)c(Cl)s1.O=C(O)C(F)(F)F (stereo partly specified) ; log10 of MIC = -0.60
